Collected activity at 0.1 µM values appear next to each entry.
Test system: monocytes (monocyte-lin)
Experiment: MLTA, Mono: concentration-response and QSP model fit
Format: cell-based, human
Conditions: Homo sapiens, Monocyte, 144 h; dose 100 nM, 6 days, normalized to vehicle control; read-out: Mon normalized cell count
Be sure to follow the number with its unit.

These solved cases illustrate the format of a correct answer.
>  <substance_smiles>
CN(C)C(=O)c1cc2cnc(Nc3ccc(N4CCNCC4)cn3)nc2n1C1CCCC1

>  <recorded_value>
55.4%

$$$$
>  <substance_smiles>
CS(=O)(=O)N1CCN(Cc2cc3nc(-c4cccc5[nH]ncc45)nc(N4CCOCC4)c3s2)CC1

>  <recorded_value>
61.1%

$$$$
>  <substance_smiles>
CCc1cnn2c(NCc3ccc[n+]([O-])c3)cc(N3CCCC[C@H]3CCO)nc12

>  <recorded_value>
0.496%

$$$$
>  <substance_smiles>
CC(=O)O[C@H]1C(=O)[C@@]2(C)[C@H]([C@H](OC(=O)c3ccccc3)[C@]3(O)C[C@H](OC(=O)[C@H](O)[C@@H](NC(=O)c4ccccc4)c4ccccc4)C(C)=C1C3(C)C)[C@]1(OC(C)=O)CO[C@@H]1C[C@@H]2O

>  <recorded_value>
0.419%

$$$$

Next up:
Ask: Output measured activity at 0.1 µM for this item: "CCN1CCN(Cc2ccc(Nc3ncc(F)c(-c4cc(F)c5nc(C)n(C(C)C)c5c4)n3)nc2)CC1"
Reply: 10.9%

---

System: neutrophils (neutrophil-lin)
Assay: MLTA, Neut: concentration-response and QSP model fit
Format: cell-based, human
Conditions: Homo sapiens, Neutrophil, 144 h; parameter from QSP model fitting; read-out: Emax_drug_Neut
Decision: Emax beneath 20% gives YES; Emax meeting or exceeding 20% gives NO.

>  <compound>
O=C1CCC(N2C(=O)c3ccccc3C2=O)C(=O)N1 (stereo not drawn) [thalidomide]

>  <cat>
YES

$$$$
>  <compound>
CC(=O)O[C@H]1C(=O)[C@@]2(C)[C@H]([C@H](OC(=O)c3ccccc3)[C@]3(O)C[C@H](OC(=O)[C@H](O)[C@@H](NC(=O)c4ccccc4)c4ccccc4)C(C)=C1C3(C)C)[C@]1(OC(C)=O)CO[C@@H]1C[C@@H]2O

>  <cat>
NO

$$$$
>  <compound>
CCc1cnn2c(NCc3ccc[n+]([O-])c3)cc(N3CCCC[C@H]3CCO)nc12

>  <cat>
NO

$$$$
>  <compound>
CC(C)C[C@H](NC(=O)[C@H](Cc1ccccc1)NC(=O)c1cnccn1)B(O)O

>  <cat>
NO

$$$$
>  <compound>
CN(C)C(=O)c1cc2cnc(Nc3ccc(N4CCNCC4)cn3)nc2n1C1CCCC1

>  <cat>
YES

$$$$

Ask: Does the reported Emax of "CCN1CCN(Cc2ccc(Nc3ncc(F)c(-c4cc(F)c5nc(C)n(C(C)C)c5c4)n3)nc2)CC1" stay below 20%?
Reply: NO

Ask: Does the reported Emax of "CC(=O)c1c(C)c2cnc(Nc3ccc(N4CCNCC4)cn3)nc2n(C2CCCC2)c1=O" stay below 20%?
Reply: YES

Ask: Does the reported Emax of Nc1cccc2c1CN(C1CCC(=O)NC1=O)C2=O (stereo not drawn) [Lenalidomide] stay below 20%?
Reply: YES

Ask: Does the reported Emax of "Nc1ccn([C@@H]2O[C@H](CO)[C@@H](O)[C@@H]2O)c(=O)n1" stay below 20%?
Reply: YES

Ask: Does the reported Emax of "Cc1sc2c(c1C)C(c1ccc(Cl)cc1)=N[C@@H](CC(=O)Nc1ccc(O)cc1)c1nnc(C)n1-2" stay below 20%?
Reply: YES

Ask: Does the reported Emax of "CC(=O)O[C@@]12CO[C@@H]1C[C@H](O)[C@@]1(C)C(=O)[C@H](O)C3=C(C)[C@@H](OC(=O)[C@H](O)[C@@H](NC(=O)OC(C)(C)C)c4ccccc4)C[C@@](O)([C@@H](OC(=O)c4ccccc4)[C@H]21)C3(C)C" stay below 20%?
Reply: NO

Ask: Does the reported Emax of "CS(=O)(=O)N1CCN(Cc2cc3nc(-c4cccc5[nH]ncc45)nc(N4CCOCC4)c3s2)CC1" stay below 20%?
Reply: YES
